Target: HIS-TGFβR2 WT (Homo sapiens, UniProt P37173)
Sequence (P37173 23-567): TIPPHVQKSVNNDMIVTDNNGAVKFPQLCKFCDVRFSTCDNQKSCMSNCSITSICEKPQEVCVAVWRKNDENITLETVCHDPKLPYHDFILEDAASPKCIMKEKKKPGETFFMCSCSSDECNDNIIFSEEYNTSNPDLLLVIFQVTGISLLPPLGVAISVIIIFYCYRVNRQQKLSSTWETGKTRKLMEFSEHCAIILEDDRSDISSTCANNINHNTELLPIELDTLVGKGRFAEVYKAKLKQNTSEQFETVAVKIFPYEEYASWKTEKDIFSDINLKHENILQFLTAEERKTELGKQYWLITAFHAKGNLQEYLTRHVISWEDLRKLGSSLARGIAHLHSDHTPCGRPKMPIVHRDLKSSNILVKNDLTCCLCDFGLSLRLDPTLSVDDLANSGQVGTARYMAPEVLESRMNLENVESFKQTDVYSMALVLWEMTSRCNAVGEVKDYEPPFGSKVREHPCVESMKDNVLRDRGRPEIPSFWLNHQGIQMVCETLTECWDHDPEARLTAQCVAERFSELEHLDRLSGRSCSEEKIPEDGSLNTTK
Test: HTRF probe-displacement assay, HIS-TGFβR2 WT
Type: binding
Recorded IC50, one value per entry.

// sample CC(=O)Nc1cc(-c2[nH]c3c(CCO)ccnc3c2-c2cccc(C(F)F)n2)ccn1 [Example 155] , its IC50 was 3.47 µM

COc1ccc(-c2c(-c3ccnc(NC(C)=O)c3)[nH]c3c(C)ccnc23)nc1 [Example 217] yielded IC50 of > 15 µM

The recorded IC50 for COc1ccc(-c2c(-c3ccnc(NC(C)=O)c3)[nH]c3cc(Cl)cnc23)nc1C [Example 170] is > 15 µM

---

Molecular target: UniProt P37173
Assay: HTRF probe-displacement assay, HIS-TGFβR2 WT
Assay type: binding
ENDPOINT: IC50

Worked set:
IC50 recorded for this compound, CCCNCc1cnc2c(-c3ccc(OC)cn3)c(-c3ccnc(NC(C)=O)c3)[nH]c2c1 , is > 15 µM

Form: compound = CC(=O)Nc1cc(-c2[nH]c3cc(Cl)cnc3c2-c2nc(C(F)(F)F)cs2)ccn1 ; IC50 = > 15 µM

Consider now this further compound.
Record CNCc1ccnc2c(-c3cccc(C(F)F)n3)c(-c3ccnc(NC(C)=O)c3)[nH]c12 . Reported IC50: > 15 µM

---

Reported IC50 values are given for each entry in this list.
Target: HIS-TGFβR1 T204D (Homo sapiens, UniProt P36897, T204D)
Sequence (P36897 34-503 T204D): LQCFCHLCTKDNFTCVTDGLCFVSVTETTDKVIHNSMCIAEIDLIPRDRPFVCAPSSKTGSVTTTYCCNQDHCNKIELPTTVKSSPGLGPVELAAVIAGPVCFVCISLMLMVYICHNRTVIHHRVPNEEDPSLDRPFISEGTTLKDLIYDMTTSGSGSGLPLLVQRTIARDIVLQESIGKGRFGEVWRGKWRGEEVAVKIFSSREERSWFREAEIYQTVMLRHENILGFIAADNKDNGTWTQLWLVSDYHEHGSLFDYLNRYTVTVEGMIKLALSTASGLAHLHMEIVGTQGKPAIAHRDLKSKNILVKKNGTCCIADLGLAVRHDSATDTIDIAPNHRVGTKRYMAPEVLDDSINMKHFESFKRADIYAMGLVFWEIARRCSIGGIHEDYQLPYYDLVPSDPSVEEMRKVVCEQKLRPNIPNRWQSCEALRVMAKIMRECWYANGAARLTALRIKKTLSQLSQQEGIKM
Assay: HTRF probe-displacement assay, HIS-TGFβR1 T204D
Assay type: binding
Settings: read-out: TGFβR1 (μM) IC50
State the answer as a number, implicitly in µM.

Use these answered entries as a reference point.
Record CC(=O)Nc1cc(-c2[nH]c3cc(F)cnc3c2-c2cccc(Cl)n2)ccn1 [Example 38] . Reported IC50: 0.002

Per the record, CC(=O)Nc1cc(-c2c(-c3cccc(C(F)F)n3)c3ncccc3n2CC(N)=O)ccn1 [Example 114] has IC50 of 0.55

Given item COc1cnc2c(-c3nc(C(F)F)cs3)c(-c3ccnc(NC(C)=O)c3)[nH]c2c1 [Example 227] , the value recorded as its IC50 is 0.0006

Summary for this compound, O=C(CN1CCC(O)CC1)Nc1cc(-c2[nH]c3cc(Cl)cnc3c2-c2ccc(F)cn2)ccn1 [Example 244] : IC50 is 0.003

// sample COc1ccc(-c2c(-c3ccnc(NC(C)=O)c3)[nH]c3cc(N4CCC(CO)CC4)cnc23)nc1 [Example 161] , its IC50 was 0.0126

Further cases:
So, COc1ccc(-c2c(-c3ccnc(NC(C)=O)c3)[nH]c3cc(NC(C)=O)cnc23)nc1 [Example 157] ? Its IC50 was 0.0013

Entry CC(=O)Nc1cc(-c2[nH]c3c(CN4CC(F)(F)C4)ccnc3c2-c2cccc(C(F)F)n2)ccn1 [Example 152] , IC50 reported as 0.002

Please fill in: IC50 reported for COc1ccc(-c2c(-c3ccnc(NC(=O)CN4CCN(CCO)CC4)c3)[nH]c3cc(Cl)cnc23)cn1 [Example 235] = 0.001

---

Molecular target: HIS-TGFβR1 T204D (Homo sapiens, UniProt P36897, T204D)
Assay: HTRF probe-displacement assay, HIS-TGFβR1 T204D
Assay type: binding
Settings: read-out: TGFβR1 (μM) IC50
Each entry below lists one item and its recorded IC50 value.
Output spec: scalar in µM, unitless text.

Bench note, HIS-TGFβR1 T204D (Homo sapiens, UniProt P36897, T204D): COc1cnc2c(-c3cccc(C)n3)c(-c3ccnc(NC(=O)CN(C)C)c3)[nH]c2c1 , IC50 reads 0.005

# lookup: CC(=O)Nc1cc(-c2[nH]c3c(C(C)(C)O)ccnc3c2-c2cccc(C(F)F)n2)ccn1 on HIS-TGFβR1 T204D (Homo sapiens, UniProt P36897, T204D), IC50 = 0.001

Form field IC50 for item CC(=O)Nc1cc(-c2[nH]c3cccnc3c2-c2ccc(F)c(C)n2)ccn1 on HIS-TGFβR1 T204D (Homo sapiens, UniProt P36897, T204D): 0.003

---

The following molecules are listed with their measured IC50 values.
Target: UniProtKB P37173
Experiment: HTRF probe-displacement assay, HIS-TGFβR2 WT
Assay type: binding

Solved entries (count: 2):
Consider COC(=O)Nc1cc(-c2[nH]c3cc(Cl)cnc3c2-c2ccc(OC)cn2)ccn1 . Its measured IC50 is > 15 µM

The molecule listed as COc1ccc(-c2c(-c3ccnc(NC(=O)CN4CCS(=O)(=O)CC4)c3)[nH]c3cc(OC)cnc23)nc1 shows IC50 equal to > 15 µM

Continue with the molecule presented below.
In plain terms, CCCc1ccnc2c(-c3cccc(C(F)F)n3)c(-c3ccnc(NC(C)=O)c3)[nH]c12 has a documented IC50 of > 15 µM

---

Target: HIS-TGFβR2 WT (Homo sapiens)
Experiment: HTRF probe-displacement assay, HIS-TGFβR2 WT
Assay type: binding
Listing of recorded IC50 by entry.

response.value for COc1ccc(-c2c(-c3ccnc(NC(C)=O)c3)[nH]c3cc(N4CCOCC4)cnc23)nc1 [Example 164] (field: IC50) = > 15 µM

COc1ccc(-c2c(-c3ccnc(NC(=O)CN4CC[C@H](O)C4)c3)[nH]c3cc(OC)cnc23)nc1 [Example 121] yielded IC50 of > 15 µM

More entries:
Lookup result for COc1ccc(-c2c(-c3ccnc(NC(C)=O)c3)[nH]c3ccc(F)nc23)nc1 [Example 37] ; measured IC50: > 15 µM

---

Biological target: HIS-TGFβR1 T204D (Homo sapiens, UniProt P36897, T204D)
Assay: HTRF probe-displacement assay, HIS-TGFβR1 T204D
Type: binding
Conditions: read-out: TGFβR1 (μM) IC50
Each entry below carries its reported IC50.
Supply the numeric figure in µM, leaving out any unit text.

IC50 for COc1ccc(-c2c(-c3ccnc(NC(C)=O)c3)[nH]c3ccc(F)nc23)cn1 is 0.002

Summary for this compound, CC(=O)Nc1cc(-c2[nH]c3cccnc3c2-c2nc(CO)cs2)ccn1 : IC50 is 0.0055

Data point: CC(=O)Nc1cc(-c2[nH]c3cc(Cl)cnc3c2-c2cc(C)c(F)cn2)ccn1 ; IC50 = 0.027

New cases:
Input CC(=O)Nc1cc(-c2[nH]c3cccnc3c2-c2nccs2)ccn1 . Output IC50: 0.0029

Just so you know, measured IC50 for COc1ccc(-c2c(-c3ccnc(NC(=O)CN4CCS(=O)(=O)CC4)c3)[nH]c3cc(OC)cnc23)nc1 came out at 0.002

---

Recorded IC50 by entry
Molecular target: HIS-TGFβR2 WT (Homo sapiens)
Experiment: HTRF probe-displacement assay, HIS-TGFβR2 WT
Type: binding

Briefly, IC50 measured for COc1cnc2c(-c3cccc(C(F)F)n3)c(-c3ccnc(NC(=O)CN4CCN(CCO)CC4)c3)[nH]c2c1 [Example 123] : > 15 µM

Continuing:
Record CC(=O)Nc1cc(-c2[nH]c3c(CO)ccnc3c2-c2nc(C)cs2)ccn1 [Example 214] . Reported IC50: 0.173 µM

Looking up COc1cnc2c(-c3csc(C#N)n3)c(-c3ccnc(NC(C)=O)c3)[nH]c2c1 [Example 228] , I see its IC50 listed as 4.24 µM

Measured IC50 of CC(=O)Nc1cc(-c2[nH]c3c(C#N)ccnc3c2-c2nc(C)cs2)ccn1 [Example 240] : > 15 µM

Lab note: O=C(CN1CCC(O)CC1)Nc1cc(-c2[nH]c3cc(Cl)cnc3c2-c2ccc(F)cn2)ccn1 [Example 244] gave IC50 of 7.82 µM

IC50 for COC(=O)c1cc(Cl)nc2c(-c3ccc(F)cn3)c(-c3ccnc(NC(C)=O)c3)[nH]c12 [Example 69] is > 15 µM

---

Biological target: HIS-TGFβR1 T204D (Homo sapiens, UniProt P36897, T204D)
Assay: HTRF probe-displacement assay, HIS-TGFβR1 T204D
Assay type: binding
Settings: read-out: TGFβR1 (μM) IC50
ENDPOINT: IC50 (µM)
Write down the numeric answer in µM and omit the unit.

So for COC(=O)Nc1cc(-c2[nH]c3cc(Cl)cnc3c2-c2ccc(F)cn2)ccn1 , the logged IC50 turned out to be 0.01

New cases:
IC50 measured on COc1ccc(-c2c(-c3ccnc(NC(C)=O)c3)[nH]c3c(C(O)C(C)C)ccnc23)cn1 (centres unmarked) = 0.003

Notebook: COc1ccc(-c2c(-c3ccnc(NC(C)=O)c3)[nH]c3cc(Br)cnc23)nc1 , IC50 read as 0.002

Documented IC50 of CC(=O)Nc1cc(-c2[nH]c3c(C4CCN(C)CC4)ccnc3c2-c2cccc(C)n2)ccn1 : 0.2

The compound identified as CCOc1ccc(-c2c(-c3ccnc(NC(C)=O)c3)[nH]c3cc(Cl)cnc23)nc1 registered its IC50 at 0.004

According to the records, this compound COc1ccc(-c2c(-c3ccnc(NC(=O)CN4CCN(C)CC4)c3)[nH]c3cccnc23)cn1 displays IC50 of 0.001

Entry COc1ccc(-c2c(-c3ccnc(NC(C)=O)c3)[nH]c3c(C(C)(C)O)ccnc23)cn1 , IC50 reported as 0.002

The compound identified as CC(=O)Nc1cc(-c2[nH]c3cccnc3c2-c2cccc(C#N)n2)ccn1 registered its IC50 at 0.017

Given item CCc1ccnc(-c2c(-c3ccnc(NC(C)=O)c3)[nH]c3cccnc23)c1 , the value recorded as its IC50 is 0.017

Value of measured IC50 for the entry COc1ccc(-c2c(-c3ccnc(NC(C)=O)c3)[nH]c3cc(N(C)CCO)cnc23)nc1 : 0.0353

IC50 recorded for this compound, CC(=O)Nc1cc(-c2[nH]c3cccnc3c2-c2nc(C)cs2)ccn1 , is 0.0006

For reference, reported IC50 for COc1ccc(-c2c(-c3ccnc(NC(C)=O)c3)[nH]c3cc(Cl)cnc23)nc1C stands at 0.032

Notebook: COc1ccc(-c2c(-c3ccnc(NC(C)=O)c3)[nH]c3cc(C(O)C(F)(F)F)cnc23)nc1 (centres unmarked) , IC50 read as 0.004

Entry under test: CC(=O)Nc1cc(-c2[nH]c3c(C(O)C(C)C)ccnc3c2-c2cccc(C(F)F)n2)ccn1 (centres unmarked) . Its IC50 was 0.001
